- TARGET OR SYSTEM: QUAD RSV L-P (M628L, A789V, L795I, I796V) (Human respiratory syncytial virus A, UniProt P28887, A789V/I796V/L795I/M628L)
- Sequence (P28887 whole entry A789V/I796V/L795I/M628L, looked up): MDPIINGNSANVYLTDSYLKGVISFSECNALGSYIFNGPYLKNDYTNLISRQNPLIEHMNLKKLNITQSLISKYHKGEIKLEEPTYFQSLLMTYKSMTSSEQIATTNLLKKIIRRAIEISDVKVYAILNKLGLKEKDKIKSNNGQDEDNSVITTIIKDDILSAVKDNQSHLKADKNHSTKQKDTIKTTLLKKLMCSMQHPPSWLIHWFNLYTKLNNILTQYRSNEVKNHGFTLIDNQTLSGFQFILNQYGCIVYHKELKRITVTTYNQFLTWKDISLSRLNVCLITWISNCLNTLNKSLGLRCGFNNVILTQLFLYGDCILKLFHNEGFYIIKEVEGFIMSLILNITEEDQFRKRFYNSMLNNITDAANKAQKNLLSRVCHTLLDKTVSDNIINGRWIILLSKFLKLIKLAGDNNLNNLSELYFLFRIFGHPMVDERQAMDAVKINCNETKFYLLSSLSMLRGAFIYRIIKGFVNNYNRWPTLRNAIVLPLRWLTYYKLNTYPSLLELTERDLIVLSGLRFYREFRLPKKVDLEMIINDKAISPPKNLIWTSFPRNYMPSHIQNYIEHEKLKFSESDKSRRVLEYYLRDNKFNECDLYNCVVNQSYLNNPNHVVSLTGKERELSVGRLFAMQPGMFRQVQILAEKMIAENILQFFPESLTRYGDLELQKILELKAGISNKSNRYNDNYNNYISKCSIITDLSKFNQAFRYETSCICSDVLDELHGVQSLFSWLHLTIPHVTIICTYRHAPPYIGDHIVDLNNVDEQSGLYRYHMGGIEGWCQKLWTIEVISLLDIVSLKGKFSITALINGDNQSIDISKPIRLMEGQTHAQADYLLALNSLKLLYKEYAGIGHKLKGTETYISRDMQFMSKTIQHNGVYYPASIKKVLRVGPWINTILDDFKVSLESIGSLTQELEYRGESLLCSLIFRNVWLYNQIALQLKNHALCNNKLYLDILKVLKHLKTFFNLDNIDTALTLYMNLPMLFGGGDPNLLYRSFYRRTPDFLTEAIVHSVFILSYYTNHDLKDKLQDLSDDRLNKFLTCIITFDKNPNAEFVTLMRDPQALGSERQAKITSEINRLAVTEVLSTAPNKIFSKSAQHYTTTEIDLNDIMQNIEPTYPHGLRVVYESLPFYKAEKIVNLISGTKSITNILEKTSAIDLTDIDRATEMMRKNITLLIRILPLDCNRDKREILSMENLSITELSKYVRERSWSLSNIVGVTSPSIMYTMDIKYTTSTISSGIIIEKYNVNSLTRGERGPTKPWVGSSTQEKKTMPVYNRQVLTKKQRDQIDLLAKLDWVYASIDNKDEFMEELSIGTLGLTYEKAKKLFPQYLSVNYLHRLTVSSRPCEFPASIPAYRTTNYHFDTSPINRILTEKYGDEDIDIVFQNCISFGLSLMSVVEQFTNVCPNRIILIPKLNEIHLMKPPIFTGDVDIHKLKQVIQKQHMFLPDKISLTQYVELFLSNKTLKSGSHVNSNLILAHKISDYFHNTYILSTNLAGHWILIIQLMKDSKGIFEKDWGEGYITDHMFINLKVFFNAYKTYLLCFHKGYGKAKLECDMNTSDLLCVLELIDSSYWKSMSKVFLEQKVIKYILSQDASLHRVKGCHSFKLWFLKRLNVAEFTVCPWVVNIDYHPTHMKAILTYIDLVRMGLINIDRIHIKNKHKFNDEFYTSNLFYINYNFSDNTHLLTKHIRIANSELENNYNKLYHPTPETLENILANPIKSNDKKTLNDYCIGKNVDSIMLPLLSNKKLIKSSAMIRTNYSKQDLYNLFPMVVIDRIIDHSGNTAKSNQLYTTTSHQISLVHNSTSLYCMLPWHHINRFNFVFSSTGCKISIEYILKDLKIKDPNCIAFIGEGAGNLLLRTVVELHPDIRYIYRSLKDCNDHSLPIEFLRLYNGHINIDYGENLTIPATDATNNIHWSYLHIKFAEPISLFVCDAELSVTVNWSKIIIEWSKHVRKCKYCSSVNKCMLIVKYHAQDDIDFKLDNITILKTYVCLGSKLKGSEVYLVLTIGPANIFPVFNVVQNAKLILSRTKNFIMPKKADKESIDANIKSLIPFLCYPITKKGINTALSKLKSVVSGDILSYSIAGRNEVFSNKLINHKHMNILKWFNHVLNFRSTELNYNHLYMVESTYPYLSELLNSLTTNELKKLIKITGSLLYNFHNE
- PROTOCOL NOTES: Single nucleotide incorporation (primer extension) by recombinant RSV L-P, QUAD mutant
- Type: biochemical
- MEASUREMENT PARAMETERS: QUAD vs WT RSV L-P
READOUT KIND: Resistance (QUADdiscrimination / WTdiscrimination)

C[C@@H](F)[C@]1(COP(=O)(O)OP(=O)(O)OP(=O)(O)O)O[C@@H](n2ccc(N)nc2=O)[C@H](F)[C@@H]1O
> 3 fold
Nc1ccn([C@@H]2O[C@@](COP(=O)(O)OP(=O)(O)OP(=O)(O)O)(C3CC3)[C@@H](O)[C@H]2F)c(=O)n1
no resistance
Nc1ccn([C@@H]2O[C@](CF)(COP(=O)(O)OP(=O)(O)OP(=O)(O)O)[C@@H](O)[C@H]2F)c(=O)n1
> 3 fold
CSC[C@]1(COP(=O)(O)OP(=O)(O)OP(=O)(O)O)O[C@@H](n2ccc(N)nc2=O)[C@H](F)[C@@H]1O
no resistance
Nc1ccn([C@@H]2O[C@](CBr)(COP(=O)(O)OP(=O)(O)OP(=O)(O)O)[C@@H](O)[C@H]2F)c(=O)n1
> 3 fold
